Recorded IC50, one value per entry.
Molecular target: rabbit reticulocyte 15-LO (Oryctolagus cuniculus)
Sequence (P12530 1-663): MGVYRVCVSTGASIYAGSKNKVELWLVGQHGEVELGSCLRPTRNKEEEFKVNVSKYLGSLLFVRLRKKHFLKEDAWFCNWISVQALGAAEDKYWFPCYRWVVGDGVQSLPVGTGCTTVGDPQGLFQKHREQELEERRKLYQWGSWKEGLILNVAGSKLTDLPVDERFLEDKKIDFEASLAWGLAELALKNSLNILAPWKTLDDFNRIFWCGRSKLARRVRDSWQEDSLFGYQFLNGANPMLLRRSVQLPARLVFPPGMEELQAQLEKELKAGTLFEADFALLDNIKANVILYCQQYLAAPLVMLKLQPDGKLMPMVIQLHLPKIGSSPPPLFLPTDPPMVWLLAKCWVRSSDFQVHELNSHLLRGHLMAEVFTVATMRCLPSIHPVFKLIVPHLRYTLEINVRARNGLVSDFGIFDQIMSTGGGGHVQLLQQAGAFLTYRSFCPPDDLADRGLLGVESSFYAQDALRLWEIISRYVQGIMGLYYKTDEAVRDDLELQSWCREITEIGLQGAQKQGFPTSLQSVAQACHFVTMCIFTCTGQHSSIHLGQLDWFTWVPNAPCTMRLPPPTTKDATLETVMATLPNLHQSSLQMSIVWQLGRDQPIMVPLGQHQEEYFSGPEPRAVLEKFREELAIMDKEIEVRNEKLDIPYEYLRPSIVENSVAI
value-type: IC50 (nM)

COc1ccc(-c2cc3cc(F)c(F)cc3[nH]2)cc1NS(=O)(=O)c1cccs1 [Example 9]; 40
CCOP(=O)(Cc1ccc(NC(=S)Nc2cc(-c3cc4cc(F)c(F)cc4[nH]3)ccc2OC)cc1)OCC [Example 24]; 18
COc1ccc(-c2cc3cc(Cl)c(Cl)cc3[nH]2)cc1NC(=S)Nc1cccc(C(=O)O)c1 [Example 19]; 13
COc1ccc(-c2nc3cc(Cl)c(Cl)cc3n2C(=O)OCc2ccccc2)cc1NS(=O)(=O)c1cccs1 [Example 10]; 1390
COc1ccc(-c2cc3cc(F)c(F)cc3[nH]2)cc1NC(=S)Nc1cccc(C(=O)O)c1 [Example 6]; 2
COc1ccc(-c2cc3cc(Cl)c(Cl)cc3[nH]2)cc1N [Example 18]; 37
COc1ccc(-c2cc3cc(F)c(F)cc3[nH]2)cc1NC(=S)NCCO [Example 37]; 45
COc1ccc(-c2cc3cc(F)c(F)cc3[nH]2)cc1NCc1ccc(C#N)cc1 [Example 50]; 74

* * *

Where a name gives a salt, the structure may show the parent alone.
Recorded melting point, one value per entry.
value-type: melting point

COc1ccc(-c2cc3cc(F)c(F)cc3[nH]2)cc1NCc1ccc([N+](=O)[O-])cc1; 181 to 182 °C
COc1ccc(-c2nc3cc(Cl)c(Cl)cc3n2C(=O)OCc2ccccc2)cc1NS(=O)(=O)c1cccs1; 195 to 198 °C
COc1ccc(-c2cc3ccccc3[nH]2)cc1N; 208 to 209 °C
COc1ccc(-c2cc3cc(Cl)c(Cl)cc3[nH]2)cc1Nc1cccc(C(F)(F)F)c1; 193 to 194 °C
COc1ccc(-c2cc3ccccc3[nH]2)cc1NCc1cccc([N+](=O)[O-])c1; 160 to 162 °C
COc1ccc(-c2cc3cc(F)c(F)cc3[nH]2)cc1NCc1ccc(O)c([N+](=O)[O-])c1; 195 to 196 °C
COc1ccc(-c2cc3cc(F)c(F)cc3[nH]2)cc1NCc1cccs1; 190 to 192 °C
COc1ccc(-c2cc3cc(F)c(F)cc3[nH]2)cc1NC(=S)NCCO; 191 to 193 °C
COC(=O)c1ccc(Nc2cc(-c3cc4cc(F)c(F)cc4[nH]3)ccc2OC)cc1; 166 to 170 °C
COc1ccc(-c2cc3cc(F)c(F)cc3[nH]2)cc1NC(=S)Nc1ccc(F)c(F)c1; 183 to 186 °C
COc1ccc(-c2cc3cc(F)c(F)cc3[nH]2)cc1NC(=S)Nc1ccc(C(=O)O)cc1; 201 to 203 °C
COc1ccc(-c2cc3cc(F)c(F)cc3[nH]2)cc1NS(C)(=O)=O; 254 to 256 °C
COc1ccc(-c2cc3ccccc3[nH]2)cc1NC(=S)N[C@H](C)c1ccccc1; 179 to 181 °C
COc1ccc(-c2cc3ccccc3[nH]2)cc1NCc1ccc([N+](=O)[O-])cc1; 198 to 199 °C
COc1ccc(CNc2cc(-c3cc4cc(F)c(F)cc4[nH]3)ccc2OC)cc1; 173 to 175 °C
COc1ccc(-c2cc3cc(F)c(F)cc3[nH]2)cc1NS(=O)(=O)c1cccs1; 211 to 213 °C
COC(=O)c1ccc(CNc2cc(-c3cc4cc(F)c(F)cc4[nH]3)ccc2OC)cc1; 168 to 170 °C
COc1ccc(-c2cc3cc(F)c(F)cc3[nH]2)cc1NC(=S)N[C@@H](COC(C)(C)C)C(=O)OC(C)(C)C; 111 to 114 °C
COc1ccc(-c2cc3ccccc3[nH]2)cc1NC(=S)Nc1ccc(C(=O)O)cc1; 201 to 203 °C
COc1ccc(-c2cc3cc(F)c(F)cc3[nH]2)cc1Nc1cccc(OCc2ccccc2)c1 (as salt: HCl); 200 to 201 °C (dec.)
COc1ccc(-c2cc3cc(F)c(F)cc3[nH]2)cc1NCc1cccc([N+](=O)[O-])c1; 212 to 214 °C
COc1ccc(-c2cc3ccccc3[nH]2)cc1NC(=S)Nc1cc(Cl)cc(Cl)c1; 199 to 201 °C
COc1ccc(-c2cc3cc(F)c(F)cc3[nH]2)cc1NS(=O)(=O)c1cccc(C#N)c1; 239 to 242 °C
COc1ccc(-c2cc3cc(F)c(F)cc3[nH]2)cc1NC(=O)Nc1cc(Cl)cc(Cl)c1; 240 to 243 °C
CCOP(=O)(Cc1ccc(NC(=S)Nc2cc(-c3cc4cc(F)c(F)cc4[nH]3)ccc2OC)cc1)OCC; 180 to 182 °C
COc1ccc(-c2cc3cc(F)c(F)cc3[nH]2)cc1Nc1cccc(C(F)(F)F)c1; 144 to 146 °C
COc1ccc(-c2cc3cc(F)c(F)cc3[nH]2)cc1NS(=O)(=O)c1cccc([N+](=O)[O-])c1; 228 to 230 °C
COc1ccc(-c2cc3ccccc3[nH]2)cc1NC(=S)NCCNC(=O)OC(C)(C)C; 159 to 160 °C
COc1ccc(-c2cc3cc(F)c(F)cc3[nH]2)cc1NC(=S)NCCNC(=O)OC(C)(C)C; 110 to 113 °C
CCCCCCCCCCCCS(=O)(=O)Nc1cc(-c2cc3cc(F)c(F)cc3[nH]2)ccc1OC; 148 to 149 °C
COc1ccc(-c2cc3cc(F)c(F)cc3[nH]2)cc1NC(=S)Nc1cc(Cl)cc(Cl)c1; 203 to 205 °C
COc1ccc(-c2cc3cc(Cl)c(Cl)cc3[nH]2)cc1N; 235 to 237 °C

* * *

Recorded melting point, one value per entry.
value-type: melting point

COc1ccc(-c2cc3cc(F)c(F)cc3[nH]2)cc1NCc1ccc(C#N)cc1; 158 to 159 °C
COc1ccc(-c2cc3cc(F)c(F)cc3[nH]2)cc1NC(=S)N[C@@H](C)c1ccccc1; 102 to 106 °C
COc1ccc(-c2cc3ccccc3[nH]2)cc1NC(N)=S; 188 to 191 °C
COc1ccc(-c2cc3cc(F)c(F)cc3[nH]2)cc1NC(=S)Nc1cccnc1; 128 to 130 °C
COc1ccc(-c2cc3cc(F)c(F)cc3[nH]2)cc1NS(=O)(=O)c1cccc(N)c1; 235 to 238 °C
COc1ccc(-c2cc3ccccc3[nH]2)cc1NC(=S)Nc1ccc(CC(=O)O)cc1; 190 to 192 °C
COc1ccc(-c2cc3cc(F)c(F)cc3[nH]2)cc1NS(=O)(=O)c1cc(Cl)cc(Cl)c1; 217 to 219 °C
COc1ccc(-c2cc3ccccc3[nH]2)cc1NCc1ccc([N+](=O)[O-])c(O)c1; 134 to 135 °C

* * *

Molecular target: human 15-LO (Homo sapiens, UniProt P16050)
Sequence (P16050 whole entry): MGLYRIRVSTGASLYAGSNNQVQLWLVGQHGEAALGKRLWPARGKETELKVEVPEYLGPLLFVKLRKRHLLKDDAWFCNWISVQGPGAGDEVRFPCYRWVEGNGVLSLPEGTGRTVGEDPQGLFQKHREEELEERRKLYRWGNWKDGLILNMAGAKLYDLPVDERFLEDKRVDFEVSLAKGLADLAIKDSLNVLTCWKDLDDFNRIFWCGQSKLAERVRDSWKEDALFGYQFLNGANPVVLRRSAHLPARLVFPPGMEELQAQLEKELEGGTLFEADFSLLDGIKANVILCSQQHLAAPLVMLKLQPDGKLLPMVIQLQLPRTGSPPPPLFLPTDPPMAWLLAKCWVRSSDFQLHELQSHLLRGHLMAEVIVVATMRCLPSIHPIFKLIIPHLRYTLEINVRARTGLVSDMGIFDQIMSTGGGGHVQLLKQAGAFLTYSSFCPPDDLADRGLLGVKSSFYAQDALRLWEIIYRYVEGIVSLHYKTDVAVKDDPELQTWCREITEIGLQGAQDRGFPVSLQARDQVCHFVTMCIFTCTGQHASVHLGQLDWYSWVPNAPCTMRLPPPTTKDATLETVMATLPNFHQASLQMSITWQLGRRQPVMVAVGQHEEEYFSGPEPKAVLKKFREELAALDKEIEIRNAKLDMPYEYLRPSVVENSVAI
value-type: log10 IC50 (log10 of the value in nM)

CCCCCCCCCCCCS(=O)(=O)Nc1cc(-c2cc3cc(F)c(F)cc3[nH]2)ccc1OC; 1.11
COc1ccc(-c2cc3cc(F)c(F)cc3[nH]2)cc1NC(=S)Nc1cc(Cl)cc(Cl)c1; 1.78
COc1ccc(-c2cc3ccccc3[nH]2)cc1NC(N)=S; 2.41
COc1ccc(CNc2cc(-c3cc4cc(F)c(F)cc4[nH]3)ccc2OC)cc1; 2.62
COc1ccc(-c2cc3cc(F)c(F)cc3[nH]2)cc1Nc1cccc(OCc2ccccc2)c1; 1.34
COC(=O)c1ccc(Nc2cc(-c3cc4cc(F)c(F)cc4[nH]3)ccc2OC)cc1; 1.49
CCOP(=O)(Cc1ccc(NC(=S)Nc2cc(-c3cc4cc(F)c(F)cc4[nH]3)ccc2OC)cc1)OCC; 1.96
COc1ccc(-c2cc3cc(F)c(F)cc3[nH]2)cc1NC(=S)Nc1cc(C(=O)O)cc(C(=O)O)c1; 3.26
COc1ccc(-c2cc3ccccc3[nH]2)cc1NC(=S)Nc1ccc(S(N)(=O)=O)cc1; 2.27
CCOP(=O)(Cc1ccc(NC(=S)Nc2cc(-c3cc4ccccc4[nH]3)ccc2OC)cc1)OCC; 2.52
COc1ccc(-c2cc3cc(F)c(F)cc3[nH]2)cc1Nc1cccc(C(F)(F)F)c1; 1.68
COc1ccc(-c2cc3cc(F)c(F)cc3[nH]2)cc1NS(=O)(=O)c1cccs1; 0.85
COc1ccc(-c2cc3cc(F)c(F)cc3[nH]2)cc1NC(=S)Nc1ccc(F)c(F)c1; 1.56
COc1ccc(-c2cc3cc(F)c(F)cc3[nH]2)cc1NC(=S)N[C@@H](CO)[C@@H](O)c1ccccc1; 2.79
COc1ccc(-c2cc3cc(F)c(F)cc3[nH]2)cc1NS(C)(=O)=O; 1.28

All values here come from patent US6858739B2.
